Recorded values, source the supplement of paper PMC11061612.

- Test system: MFE-280 (Endometrial Carcinoma)
- PROTOCOL_DESCRIPTION: Bliss excess, mean over the matrix (fraction); higher = more synergy
MEASURED_ATTRIBUTE: Bliss excess
// no unit, no text: just the number

Task item: What Bliss excess value was documented for this compound, COc1cccc(OCCCN)c1-c1cc(Nc2cnc(C#N)cn2)n[nH]1 [Prexasertib] + C[C@@H]1COCCN1C2=NC(=NC(=C2)C3(CC3)[S@](=N)(=O)C)C4=C5C=CNC5=NC=C4 [AZD6738] (first compound max 1 µM, 7x7, partner max 10 µM) ?
Reply: -0.024

Task item: Look at this compound and give its reported Bliss excess. NC1(C(=O)N[C@@H](CCO)c2ccc(Cl)cc2)CCN(c2ncnc3[nH]ccc23)CC1 [Capivasertib] + COc1nnc2ccc(N3CCC(c4ccc(OCCN5CCN(C)C(=O)[C@H]5C)cc4)CC3)nn12 [AZD5153] (first compound max 10 µM, 7x7, partner max 1 µM)
Reply: -0.0126

* * *

- System: HSC-39 (Gastric Carcinoma)
- PROTOCOL_DESCRIPTION: Bliss excess, mean over the matrix (fraction); higher = more synergy
Each item that follows carries a reported Bliss excess.
// print number alone

Task item: Item under review: C=CCn1c(=O)c2cnc(Nc3ccc(N4CCN(C)CC4)cc3)nc2n1-c1cccc(C(C)(C)O)n1 [AZD1775] + C1CN(CCC1(C(=O)N[C@@H](CCO)C2=CC=C(C=C2)Cl)N)C3=NC=NC4=C3C=CN4 [Capivasertib] (first compound max 3 µM, partner max 3 µM) . Reported Bliss excess?
Reply: 0.0067

Continue with the compound presented below.
Task item: Fill blank: measured Bliss excess of the compound CC1(C)CCC(CN2CCN(c3ccc(C(=O)NS(=O)(=O)c4ccc(NCC5CCOCC5)c([N+](=O)[O-])c4)c(Oc4cnc5[nH]ccc5c4)c3)CC2)=C(c2ccc(Cl)cc2)C1 [Venetoclax] + CN(C)CCCOc1ccc(-c2ccc3ncc4c(c3c2)n(C2CCOCC2)c(=O)n4C)cn1 [AZD0156] (first compound max 1 µM, 7x7, partner max 1 µM) is ____.
Reply: 0.015

* * *

- Test system: VAL (B-Cell Non-Hodgkin's Lymphoma)
- PROTOCOL_DESCRIPTION: Bliss excess, mean over the matrix (fraction); higher = more synergy
MEASURED_ATTRIBUTE: Bliss excess
Hey, just send me the number, nothing else.

Task item: Field request: Bliss excess | item: CC1(C)CCC(CN2CCN(c3ccc(C(=O)NS(=O)(=O)c4ccc(NCC5CCOCC5)c([N+](=O)[O-])c4)c(Oc4cnc5[nH]ccc5c4)c3)CC2)=C(c2ccc(Cl)cc2)C1 [Venetoclax] + Cc1cc2ncnn2cc1Nc1ncc2c(n1)n(C1CCOCC1)c(=O)n2C [AZD7648] (first compound max 1 µM, 7x7, partner max 10 µM)
Reply: 0.012

// next entry
Task item: Consider the compound Cc1c2c(nn1C)CSCc1cc(n(C)n1)CSc1cc(c3ccccc3c1)OCCCc1c(C(=O)O)n(C)c3c-2c(Cl)ccc13 [AZD5991] + Nc1ccn([C@@H]2O[C@H](CO)[C@@H](O)C2(F)F)c(=O)n1 [Gemcitabine] (first compound max 1 µM, 7x7, partner max 0.3 µM) and give its measured Bliss excess.
Reply: -0.0324

* * *

Examples of molecules with documented combination Emax follow.
- Test system: PC-3_[JPC-3] (Lung Adenocarcinoma)
- PROTOCOL_DESCRIPTION: combination Emax (second highest fraction inhibited in the dose matrix, 72 h); higher = more inhibition; extreme values may be limits of the assay

Task item: Any idea what its combination Emax is? The molecule is Cn1cnc2c(F)c(Nc3ccc(Br)cc3Cl)c(C(=O)NOCCO)cc21 [Selumetinib] + C[C@@H]1COCCN1C2=NC(=NC(=C2)C3(CC3)[S@](=N)(=O)C)C4=C5C=CNC5=NC=C4 [AZD6738] (first compound max 10 µM, 7x7, partner max 10 µM)
Reply: 0.309

Task item: # combination Emax lookup, item CC(=O)c1c(C)c2cnc(Nc3ccc(N4CCNCC4)cn3)nc2n(C2CCCC2)c1=O [Palbociclib] + Cn1cnc2c(F)c(Nc3ccc(Br)cc3Cl)c(C(=O)NOCCO)cc21 [Selumetinib] (first compound max 10 µM, 7x7, partner max 10 µM)
Reply: 0.29

Task item: Given NC1(C(=O)N[C@@H](CCO)c2ccc(Cl)cc2)CCN(c2ncnc3[nH]ccc23)CC1 [Capivasertib] + CCN(CCO)CCCOc1ccc2c(Nc3cc(CC(=O)Nc4cccc(F)c4)[nH]n3)ncnc2c1 [AZD2811] (first compound max 10 µM, 7x7, partner max 1 µM) , state its recorded combination Emax.
Reply: 0.344

Field: next molecule
Task item: Requested field: combination Emax. Item: Cc1nc(Nc2ncc(C(=O)Nc3c(C)cccc3Cl)s2)cc(N2CCN(CCO)CC2)n1 [Dasatinib] + CC(=O)Nc1cccc(-n2c(=O)n(C3CC3)c(=O)c3c(Nc4ccc(I)cc4F)n(C)c(=O)c(C)c32)c1 [Trametinib] (first compound max 2 µM, 7x7, partner max 1 µM)
Reply: 0.738

* * *

- Tested on: HCT-15 (Colorectal Carcinoma)
- PROTOCOL_DESCRIPTION: Bliss excess, mean over the matrix (fraction); higher = more synergy
MEASURED_ATTRIBUTE: Bliss excess
Number only, please.

Please review the following examples before continuing.
Task item: // lookup Bliss excess for Cn1cnc2c(F)c(Nc3ccc(Br)cc3Cl)c(C(=O)NOCCO)cc21 [Selumetinib] + CC(C)n1c(=O)n(C)c2cnc3cc(F)c(-c4ccc(OCCCN5CCCCC5)nc4)cc3c21 [AZD1390] (first compound max 10 µM, 7x7, partner max 0.3 µM)
Reply: -0.0001

Task item: Value lookup for Bliss excess; key = COc1cc2ncnc(Nc3ccc(F)c(Cl)c3)c2cc1OCCCN1CCOCC1 [Gefitinib] + CC(C)n1c(=O)n(C)c2cnc3cc(F)c(-c4ccc(OCCCN5CCCCC5)nc4)cc3c21 [AZD1390] (first compound max 10 µM, 7x7, partner max 0.3 µM)
Reply: -0.0533

Task item: Endpoint output: Bliss excess of NC1(C(=O)N[C@@H](CCO)c2ccc(Cl)cc2)CCN(c2ncnc3[nH]ccc23)CC1 [Capivasertib] + C[C@@H]1COCCN1C2=NC(=NC(=C2)C3(CC3)[S@](=N)(=O)C)C4=C5C=CNC5=NC=C4 [AZD6738] (first compound max 10 µM, 7x7, partner max 10 µM) . Value?
Reply: -0.0104

Task item: Would you kindly share the measured Bliss excess for COc1nnc2ccc(N3CCC(c4ccc(OCCN5CCN(C)C(=O)[C@H]5C)cc4)CC3)nn12 [AZD5153] + C[C@@H]1COCCN1C2=NC(=NC(=C2)C3(CC3)[S@](=N)(=O)C)C4=C5C=CNC5=NC=C4 [AZD6738] (first compound max 1 µM, 7x7, partner max 10 µM) ?
Reply: 0.0267

Task item: I am curious: what Bliss excess value has been reported for NC1(C(=O)N[C@@H](CCO)c2ccc(Cl)cc2)CCN(c2ncnc3[nH]ccc23)CC1 [Capivasertib] + Cn1cnc2c(F)c(Nc3ccc(Br)cc3Cl)c(C(=O)NOCCO)cc21 [Selumetinib] (first compound max 10 µM, 7x7, partner max 10 µM) ?
Reply: 0.0387

Task item: # query: Bliss excess of entry Cc1nc(Nc2ncc(C(=O)Nc3c(C)cccc3Cl)s2)cc(N2CCN(CCO)CC2)n1 [Dasatinib] + CC(=O)Nc1cccc(-n2c(=O)n(C3CC3)c(=O)c3c(Nc4ccc(I)cc4F)n(C)c(=O)c(C)c32)c1 [Trametinib] (first compound max 2 µM, 7x7, partner max 1 µM)
Reply: 0.0847

---
Task item: Item CC1(C)CCC(CN2CCN(c3ccc(C(=O)NS(=O)(=O)c4ccc(NCC5CCOCC5)c([N+](=O)[O-])c4)c(Oc4cnc5[nH]ccc5c4)c3)CC2)=C(c2ccc(Cl)cc2)C1 [Venetoclax] + Cn1cnc2c(F)c(Nc3ccc(Br)cc3Cl)c(C(=O)NOCCO)cc21 [Selumetinib] (first compound max 1 µM, 7x7, partner max 3 µM) has what recorded Bliss excess?
Reply: -0.0231

* * *

- Test system: LXF-289 (Lung Adenocarcinoma)
- PROTOCOL_DESCRIPTION: Bliss excess, mean over the matrix (fraction); higher = more synergy
Each entry below carries its recorded Bliss excess.
// return just the number, without any unit appended

Task item: What does the data say about its Bliss excess? Entry: Cc1c2c(nn1C)CSCc1cc(n(C)n1)CSc1cc(c3ccccc3c1)OCCCc1c(C(=O)O)n(C)c3c-2c(Cl)ccc13 [AZD5991] + Cn1cnc2c(F)c(Nc3ccc(Br)cc3Cl)c(C(=O)NOCCO)cc21 [Selumetinib] (first compound max 1 µM, 7x7, partner max 3 µM)
Reply: 0.0414

Task item: Reported Bliss excess for Cc1cc2ncnn2cc1Nc1ncc2c(n1)n(C1CCOCC1)c(=O)n2C [AZD7648] + CN(C)CCCOc1ccc(-c2ccc3ncc4c(c3c2)n(C2CCOCC2)c(=O)n4C)cn1 [AZD0156] (first compound max 10 µM, 7x7, partner max 1 µM) : what is it?
Reply: 0.034

Task item: Reported Bliss excess, molecule COc1nnc2ccc(N3CCC(c4ccc(OCCN5CCN(C)C(=O)[C@H]5C)cc4)CC3)nn12 [AZD5153] + Cc1c2c(nn1C)CSCc1cc(n(C)n1)CSc1cc(c3ccccc3c1)OCCCc1c(C(=O)O)n(C)c3c-2c(Cl)ccc13 [AZD5991] (first compound max 1 µM, 7x7, partner max 1 µM) : ____
Reply: 0.0019

Task item: Would you kindly share the measured Bliss excess for Cc1c2c(nn1C)CSCc1cc(n(C)n1)CSc1cc(c3ccccc3c1)OCCCc1c(C(=O)O)n(C)c3c-2c(Cl)ccc13 [AZD5991] + CC1(C)CCC(CN2CCN(c3ccc(C(=O)NS(=O)(=O)c4ccc(NCC5CCOCC5)c([N+](=O)[O-])c4)c(Oc4cnc5[nH]ccc5c4)c3)CC2)=C(c2ccc(Cl)cc2)C1 [Venetoclax] (first compound max 1 µM, 7x7, partner max 1 µM) ?
Reply: 0.0108

More entries:
Task item: Sample CC(=O)c1c(C)c2cnc(Nc3ccc(N4CCNCC4)cn3)nc2n(C2CCCC2)c1=O [Palbociclib] + Cc1c2c(nn1C)CSCc1cc(n(C)n1)CSc1cc(c3ccccc3c1)OCCCc1c(C(=O)O)n(C)c3c-2c(Cl)ccc13 [AZD5991] (first compound max 10 µM, 7x7, partner max 1 µM) — what was its Bliss excess?
Reply: 0.008

Task item: Consider the molecule shown here: CC1(C)CCC(CN2CCN(c3ccc(C(=O)NS(=O)(=O)c4ccc(NCC5CCOCC5)c([N+](=O)[O-])c4)c(Oc4cnc5[nH]ccc5c4)c3)CC2)=C(c2ccc(Cl)cc2)C1 [Venetoclax] + COc1cc(Nc2ncc3c(n2)-c2ccc(Cl)cc2C(c2c(F)cccc2OC)=NC3)ccc1C(=O)O [Alisertib] (first compound max 1 µM, 7x7, partner max 10 µM) What is its recorded Bliss excess?
Reply: -0.0953

Task item: Which measured Bliss excess value corresponds to CC1(C)CCC(CN2CCN(c3ccc(C(=O)NS(=O)(=O)c4ccc(NCC5CCOCC5)c([N+](=O)[O-])c4)c(Oc4cnc5[nH]ccc5c4)c3)CC2)=C(c2ccc(Cl)cc2)C1 [Venetoclax] + CCN(CCO)CCCOc1ccc2c(Nc3cc(CC(=O)Nc4cccc(F)c4)[nH]n3)ncnc2c1 [AZD2811] (first compound max 1 µM, 7x7, partner max 1 µM) ?
Reply: -0.0678

Task item: Recorded Bliss excess for Cc1c2c(nn1C)CSCc1cc(n(C)n1)CSc1cc(c3ccccc3c1)OCCCc1c(C(=O)O)n(C)c3c-2c(Cl)ccc13 [AZD5991] + CCN(CCO)CCCOc1ccc2c(Nc3cc(CC(=O)Nc4cccc(F)c4)[nH]n3)ncnc2c1 [AZD2811] (first compound max 1 µM, 7x7, partner max 1 µM) , please?
Reply: 0.0912

Task item: Any idea what Bliss excess was measured for CC1(C)CCC(CN2CCN(c3ccc(C(=O)NS(=O)(=O)c4ccc(NCC5CCOCC5)c([N+](=O)[O-])c4)c(Oc4cnc5[nH]ccc5c4)c3)CC2)=C(c2ccc(Cl)cc2)C1 [Venetoclax] + Cc1cc2ncnn2cc1Nc1ncc2c(n1)n(C1CCOCC1)c(=O)n2C [AZD7648] (first compound max 1 µM, 7x7, partner max 10 µM) ?
Reply: -0.0935

Task item: Dear colleague, I am looking for the recorded Bliss excess of the following molecule: Cn1cnc2c(F)c(Nc3ccc(Br)cc3Cl)c(C(=O)NOCCO)cc21 [Selumetinib] + C=CCn1c(=O)c2cnc(Nc3ccc(N4CCN(C)CC4)cc3)nc2n1-c1cccc(C(C)(C)O)n1 [AZD1775] (first compound max 10 µM, partner max 1 µM)
Reply: -0.0547

Task item: If you can, please state the reported Bliss excess value of Cc1nc(Nc2ncc(C(=O)Nc3c(C)cccc3Cl)s2)cc(N2CCN(CCO)CC2)n1 [Dasatinib] + CC(=O)Nc1cccc(-n2c(=O)n(C3CC3)c(=O)c3c(Nc4ccc(I)cc4F)n(C)c(=O)c(C)c32)c1 [Trametinib] (first compound max 2 µM, 7x7, partner max 1 µM) .
Reply: -0.0439

Task item: Any idea what its Bliss excess is? The molecule is COc1nnc2ccc(N3CCC(c4ccc(OCCN5CCN(C)C(=O)[C@H]5C)cc4)CC3)nn12 [AZD5153] + CCN(CCO)CCCOc1ccc2c(Nc3cc(CC(=O)Nc4cccc(F)c4)[nH]n3)ncnc2c1 [AZD2811] (first compound max 1 µM, 7x7, partner max 1 µM)
Reply: 0.0227

Task item: Requested field: Bliss excess. Item: COc1nnc2ccc(N3CCC(c4ccc(OCCN5CCN(C)C(=O)[C@H]5C)cc4)CC3)nn12 [AZD5153] + Cn1cnc2c(F)c(Nc3ccc(Br)cc3Cl)c(C(=O)NOCCO)cc21 [Selumetinib] (first compound max 1 µM, 7x7, partner max 10 µM)
Reply: -0.0468

Task item: I am curious: what Bliss excess value has been reported for COc1cc2ncnc(Nc3ccc(F)c(Cl)c3)c2cc1OCCCN1CCOCC1 [Gefitinib] + CC(C)n1c(=O)n(C)c2cnc3cc(F)c(-c4ccc(OCCCN5CCCCC5)nc4)cc3c21 [AZD1390] (first compound max 10 µM, 7x7, partner max 0.3 µM) ?
Reply: -0.0717
